B1: Pistol ribozyme (parent)
chain: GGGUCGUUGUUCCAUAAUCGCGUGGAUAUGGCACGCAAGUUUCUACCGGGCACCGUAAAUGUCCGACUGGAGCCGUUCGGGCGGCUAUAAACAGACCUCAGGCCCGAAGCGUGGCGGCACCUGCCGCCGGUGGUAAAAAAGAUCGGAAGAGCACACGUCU

Variants of: B1
Assay: aptazyme ON/OFF ratio, guanine; higher = stronger switching; co-transcriptional cleavage with and without guanine
measured-parameter: aptazyme ON/OFF ratio

variant-label: U7G U8G U11A C12G
endpoint-result: 1.43
--
variant-label: U7C U8A G9A U11G C12A C13U
endpoint-result: 1.09

Returns the measured aptazyme ON/OFF ratio for the input variant. Input: U7A U8C G9A U10G U11A C12U C13A
1.19

What would you report for U7A G9C U10C C12G ?
1.07

Quick one: U7G G9U U10A U11G C12U C13A
1.23

One more variant: U7A U8A G9C C12A C13U
1.24

Each recorded value in this set is attributed to the RNAGym collection of RNA variant scans (doi:10.1021/acssynbio.7b00057).
